- Tested on: S. cerevisiae Mot1-301 ts growth rescue, BacTiter-Glo ATP luminescence
- Assay name: restored Mot1-301 yeast growth at 38.5C – whole organism, S. cerevisiae, Mot1-301 ts mutant, luminescence, dose retest, SUMOylation pathway inhibitor project, confirmation (AID 463204);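 further: growth at restrictive 38.5 degrees C of Mot1-301 OY566 strain; actives raise luminescence by restoring growth of the ts mutant at high temperature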
Activity calls are given as the source filed them.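 How the source made its calls: active means AC50 no more than ten times the top concentration tested, that is within one log above it; inconclusive means flat curve fit with activity between 30% and 70%, or invalid poor fit; inactive means AC50 beyond ten times the top tested dose.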
Allowed answers: Yes (active), No (inactive)

Study these solved cases before continuing.
1) O=[N+]([O-])c1nn(-c2ccc(Cl)cc2)n(O)c1=NCc1ccccc1Cl :: Yes
2) COc1ccc(NC2CCCN(C(=O)CCc3scnc3C)C2)cc1 (stereo unspecified) :: No
3) CCOc1ccccc1C(=O)NCc1ccc2c(c1)OCO2 :: No
4) COc1ccc(/C=C(\C#N)C(=O)c2cccn2C)cc1 :: No

What outcome does the record of this test show for O=C(/C=C/c1cccc([N+](=O)[O-])c1)NCCSCc1ccc(Cl)cc1Cl ?
No

Again, but for COc1ccc(CCN(C)CCCC(C#N)(c2ccc(OC)c(OC)c2)C(C)C)cc1OC (stereo unspecified)
No

The origin of these recorded values is PubChem BioAssay AID463204.
